- experiment: chemical genetic growth profiling, strain panel (AID 1159580);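 also: tested at 20 µM; growth read once vehicle control cultures reached saturation at 30 °C; lower values mean less growth of the strain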
- reported conditions: S. cerevisiae deletion strains, growth OD, locus YNL298W, strain CLA4, stronger effect = lower value
Among all 5,500 compounds or so, about 2,000 (36%) were called active. Another 18% or so got no clear call; they are omitted. This is one part of the list.
Rule: normalized growth below 1 gives rule met. Equal to or above 1 gives rule not met.

COc1cc(O)c(C)c(O)c1; rule not met
C[C@]12CCC3C(CC[C@H]4CC(=O)CC[C@]34C)C1CCC2=O (stereo partly drawn); rule met

Enquiry: Lab note: confirm whether the reported normalized growth for this molecule is below 1, equality not counting. molecule: CC(=O)Oc1ccc2c(c1)CCC1C2CC[C@@]2(C)C1CC[C@@H]2OC(C)=O (stereo partly drawn)
Return: rule met

Enquiry: Please let me know if Cn1nnnc1SCC1=C(C(=O)O)N2C(=O)C(NC(=O)C(OC=O)c3ccccc3)C2SC1 (stereo not drawn) shows normalized growth below 1.
Return: rule not met

Enquiry: Hello, is normalized growth of the following molecule strictly smaller than 1? O=C1OC(=O)C2C3CCC(O3)C12 (stereo not drawn)
Return: rule met

Enquiry: normalized growth under 1? Item: `CCS(=O)(=O)CCn1c([N+](=O)[O-])cnc1C`
Return: rule not met

Enquiry: Dear colleague, could you confirm whether normalized growth of `CC1(C)S[C@@H]2[C@H](NC(=O)COc3ccccc3)C(=O)N2[C@H]1C(=O)O` falls below 1? Thanks.
Return: rule not met

Enquiry: Threshold test, normalized growth < 1: `C=C(C)c1cc2cc(C(C)=O)c(O)cc2o1`
Return: rule met
